Cited source for all entries: patent US4503256A

Below, each of the compounds is paired with its reported LD50 at 168 h value.
assay_details: Acute oral toxicity in CD-1 mice
Type: in vivo
test_context: mouse, in vivo, male and female CD-1 mice, dose levels 1000, 464, 215 and 100 mg/kg, 7 days observation

| compound | LD50 at 168 h |
| --- | --- |
| CCCC(=O)c1c(O)cc(O)c2c1OC(C)(C)CC2 | > 1000 mg/kg |
| C=CCc1c(O)cc(O)c(C(=O)CC)c1O | > 1000 mg/kg |
| C=CCc1c(O)cc(O)c(C(=O)CCCC)c1O | > 1000 mg/kg |
| CCC(=O)c1c(O)cc(O)c(CC=C(C)C)c1O | > 1000 mg/kg |
| CC(C)=CCc1c(O)cc(O)c(C(=O)Cc2ccc(Cl)cc2)c1O | 1000 mg/kg |
| CC(C)CCC(=O)c1c(O)cc(O)c(Cc2ccccc2)c1O | 1000 mg/kg |
| CCCC(=O)c1c(O)c2c(c(C(=O)CCC)c1O)OC(C)(C)CC2 | > 1000 mg/kg |
| CCCCCC(=O)c1c(O)cc(O)c(CC=C(C)C)c1O | > 1000 mg/kg |
| CCCC(=O)c1c(O)c2c(c(C(=O)CCC)c1O)OC(C)C2 (stereo not shown) | > 215 mg/kg |
| CCCCC(=O)c1c(O)cc(O)c(CC=C(C)C)c1O | > 1000 mg/kg |
| C=CCc1c(O)cc(O)c(C(=O)Cc2ccc(Cl)cc2)c1O | > 1000 mg/kg |
| CC(C)=CCc1c(O)cc(O)c(C(=O)Cc2ccccc2)c1O | > 1000 mg/kg |
| CC(C)CCC(=O)c1c(O)cc(O)c2c1OC(C)(C)CC2 | > 1000 mg/kg |
| CC(C)=CCc1c(O)cc(O)c(C(=O)C2CCCCC2)c1O | > 1000 mg/kg |
| CCCCCCCCC(=O)c1c(O)cc2c(c1O)CCC(C)(C)O2 | > 1000 mg/kg |
| C=CCc1c(O)cc(O)c(C(=O)C2CCCCC2)c1O | > 1000 mg/kg |
| CCCCCCCCC(=O)c1c(O)cc(O)c(Cc2ccccc2)c1O | > 1000 mg/kg |
| CC(C)=CCc1c(O)cc(O)c(C(=O)CCC(C)C)c1O | 1000 mg/kg |
| CCCC(=O)c1c(O)cc(O)c(C(=O)CCC)c1O | > 1000 mg/kg |

====

assay_details: Acute oral toxicity in CD-1 mice
Assay type: in vivo
test_context: mouse, in vivo, male and female CD-1 mice, dose levels 1000, 464, 215 and 100 mg/kg, 7 days observation
property: LD50 at 168 h

| compound | test_result |
| --- | --- |
| CC(C)=CCc1c(O)cc(O)c(C(=O)C2CCCC2)c1O [Compound 9] | < 100 mg/kg |
| CCCCCCCC(=O)c1c(O)cc(O)c(CC=C(C)C)c1O [Compound 11] | 597 mg/kg |
| C=CCc1c(O)cc(O)c(C(=O)CCCCC)c1O [Compound 18] | > 1000 mg/kg |
| C=CCc1c(O)cc(O)c(C(=O)CCC(C)C)c1O [Compound 19] | > 1000 mg/kg |
| CCCCCCCCC(=O)c1c(O)cc(O)c2c1OC(C)(C)CC2 [Compound 32] | > 1000 mg/kg |
| CC(C)CCC(=O)c1c(O)cc2c(c1O)CCC(C)(C)O2 [Compound 33] | > 1000 mg/kg |
| CCCC(=O)c1c(O)cc(O)c(Cc2ccccc2)c1O [Compound 24, 2-Butyryl-4-benzylphloroglucinol] | 1000 mg/kg |

====

System: S. AUREUS
assay_details: Minimum Inhibitory Concentration (MIC), broth dilution in Brain Heart Infusion broth
Assay type: cell-based, Staphylococcus aureus
test_context: Staphylococcus aureus; 37° C., 48 hours, Brain Heart Infusion broth; read-out: MIC S. AUREUS

| smiles_input | reading_unit | MIC |
| --- | --- | --- |
| CCCC(=O)c1c(O)cc(O)c(Cc2ccccc2)c1O | µg/mL | 16 |
| C=CCc1c(O)cc(O)c(C(=O)C2CCCCC2)c1O | µg/mL | 32 |
| CC(C)=CCc1c(O)cc(O)c(C(=O)Cc2ccccc2)c1O | µg/mL | 250 |
| CC(C)=CCc1c(O)cc(O)c(C(=O)C2CCCCC2)c1O | µg/mL | 32 |

====

Below, each of the compounds is paired with its reported MIC value.
Test system: C. ALBICANS

| compound | experimental_target | reading_unit | bound_operator | MIC |
| --- | --- | --- | --- | --- |
| CCCC(=O)c1c(O)c2c(c(C(=O)CCC)c1O)OC(C)(C)CC2 [Compound 36] | C. ALBICANS | µg/mL | = | 100 |
| CC(C)CCC(=O)c1c(O)cc(O)c2c1OC(C)(C)CC2 [Compound 31] | C. ALBICANS | µg/mL | = | 100 |
| C=CCc1c(O)cc(O)c(C(=O)CC)c1O [Compound 15] | C. ALBICANS | µg/mL | = | 100 |
| CC(C)CCC(=O)c1c(O)cc2c(c1O)CCC(C)(C)O2 [Compound 33] | C. ALBICANS | µg/mL | = | 100 |
| C=CCc1c(O)cc(O)c(C(=O)CCCCC)c1O [Compound 18] | C. ALBICANS | µg/mL | = | 13 |
| CC(C)CCC(=O)c1c(O)cc(O)c(Cc2ccccc2)c1O [Compound 25, 2-Isocaproyl-4-benzylphloroglucinol] | C. ALBICANS | µg/mL | = | 13 |
| C=CCc1c(O)cc(O)c(C(=O)CCCC)c1O [Compound 17] | C. ALBICANS | µg/mL | = | 25 |
| CC(C)=CCc1c(O)cc(O)c(C(=O)Cc2ccccc2)c1O [Compound 6] | C. ALBICANS | µg/mL | > | 100 |
| CCCCCCCCC(=O)c1c(O)cc2c(c1O)CCC(C)(C)O2 [Compound 34] | C. ALBICANS | µg/mL | = | 100 |
| C=CCc1c(O)cc(O)c(C(=O)C2CCCCC2)c1O [Compound 20] | C. ALBICANS | µg/mL | = | 25 |
| CCCC(=O)c1c(O)cc(O)c(C(=O)CCC)c1O [Compound 1, 2,4-Dibutyrylphloroglucinol] | C. ALBICANS | µg/mL | = | 13 |
| CCCCCCCCC(=O)c1c(O)cc(O)c2c1OC(C)(C)CC2 [Compound 32] | C. ALBICANS | µg/mL | = | 100 |
| C=CCc1c(O)cc(O)c(C(=O)CCC(C)C)c1O [Compound 19] | C. ALBICANS | µg/mL | = | 25 |
| CC(C)=CCc1c(O)cc(O)c(C(=O)Cc2ccc(Cl)cc2)c1O [Compound 14] | C. ALBICANS | µg/mL | = | 100 |
| CCCCCCCCC(=O)c1c(O)cc(O)c(Cc2ccccc2)c1O [Compound 27, 2-Nonanoyl-4-benzylphloroglucinol] | C. ALBICANS | µg/mL | = | 100 |
| CCCC(=O)c1c(O)cc(O)c(Cc2ccccc2)c1O [Compound 24, 2-Butyryl-4-benzylphloroglucinol] | C. ALBICANS | µg/mL | = | 25 |
| C=CCc1c(O)cc(O)c(C(=O)Cc2ccc(Cl)cc2)c1O [Compound 23] | C. ALBICANS | µg/mL | = | 13 |
| CCCCCC(=O)c1c(O)cc(O)c(CC=C(C)C)c1O [Compound 5] | C. ALBICANS | µg/mL | = | 13 |
| CC(C)=CCc1c(O)cc(O)c(C(=O)C2CCCC2)c1O [Compound 9] | C. ALBICANS | µg/mL | = | 6.2 |
| CC(C)=CCc1c(O)cc(O)c(C(=O)C2CCCCC2)c1O [Compound 8] | C. ALBICANS | µg/mL | = | 13 |
| CC(C)=CCc1c(O)cc(O)c(C(=O)CCC(C)C)c1O [Compound 7] | C. ALBICANS | µg/mL | = | 25 |
| CCCCCCCC(=O)c1c(O)cc(O)c(CC=C(C)C)c1O [Compound 11] | C. ALBICANS | µg/mL | = | 100 |
| CCC(=O)c1c(O)cc(O)c(CC=C(C)C)c1O [Compound 2] | C. ALBICANS | µg/mL | = | 50 |
| CCCC(=O)c1c(O)c2c(c(C(=O)CCC)c1O)OC(C)C2 (centres unmarked) [Compound 37] | C. ALBICANS | µg/mL | > | 100 |
| CCCC(=O)c1c(O)cc(O)c2c1OC(C)(C)CC2 [Compound 30] | C. ALBICANS | µg/mL | = | 25 |
| CCCCC(=O)c1c(O)cc(O)c(CC=C(C)C)c1O [Compound 4] | C. ALBICANS | µg/mL | = | 25 |
